Hello, the source for this data is patent US20150329642A1, in case you need it.

molecular target: T1, rhHGF R/Fc Chimera (R&D Systems; Cat.358MT/CF) (human, UniProt P08581 25-932); assay: ELISA on coated rhHGF R/Fc Chimera
T1 construct: Bought reagent; Fc part of the bought chimera not given; not described
T1 sequence (P08581 25-932, change not shown): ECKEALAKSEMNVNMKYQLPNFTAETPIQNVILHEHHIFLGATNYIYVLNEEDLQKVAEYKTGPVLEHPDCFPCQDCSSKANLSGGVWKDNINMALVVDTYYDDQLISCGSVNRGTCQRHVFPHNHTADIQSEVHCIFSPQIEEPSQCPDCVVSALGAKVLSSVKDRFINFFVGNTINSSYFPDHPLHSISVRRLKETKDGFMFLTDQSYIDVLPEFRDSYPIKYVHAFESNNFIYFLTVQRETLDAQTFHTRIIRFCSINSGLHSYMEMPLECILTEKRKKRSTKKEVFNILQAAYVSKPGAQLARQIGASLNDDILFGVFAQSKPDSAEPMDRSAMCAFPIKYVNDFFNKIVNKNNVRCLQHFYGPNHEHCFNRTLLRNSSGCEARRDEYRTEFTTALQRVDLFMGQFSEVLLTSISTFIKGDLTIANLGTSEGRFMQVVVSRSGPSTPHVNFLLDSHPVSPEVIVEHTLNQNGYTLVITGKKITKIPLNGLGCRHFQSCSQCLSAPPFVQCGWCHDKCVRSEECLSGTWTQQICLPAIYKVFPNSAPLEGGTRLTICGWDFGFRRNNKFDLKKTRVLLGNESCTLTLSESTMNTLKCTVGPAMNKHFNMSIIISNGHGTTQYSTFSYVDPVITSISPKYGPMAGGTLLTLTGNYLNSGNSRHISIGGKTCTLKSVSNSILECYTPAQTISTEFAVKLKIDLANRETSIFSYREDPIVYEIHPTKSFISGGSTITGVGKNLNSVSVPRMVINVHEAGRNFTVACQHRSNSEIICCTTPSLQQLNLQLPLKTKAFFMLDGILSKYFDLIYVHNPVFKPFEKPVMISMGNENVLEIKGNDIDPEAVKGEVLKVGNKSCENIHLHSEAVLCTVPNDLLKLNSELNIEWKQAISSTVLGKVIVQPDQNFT
Would you mind telling me the reported EC50 of each entry?
API: value field is a number in µg/mL; no unit string.

Problem: Please supply the value of reported EC50 for the item Uni-1016-069-TE (other, also called UniBody molecule of antibody 069) VH: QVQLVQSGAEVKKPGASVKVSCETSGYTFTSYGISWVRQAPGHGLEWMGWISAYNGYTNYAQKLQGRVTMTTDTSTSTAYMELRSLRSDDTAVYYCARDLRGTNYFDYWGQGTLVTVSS VL: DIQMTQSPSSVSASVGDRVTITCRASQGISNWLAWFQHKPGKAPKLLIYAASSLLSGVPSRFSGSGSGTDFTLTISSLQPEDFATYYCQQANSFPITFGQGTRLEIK
Solution: 0.0301

Problem: Please supply the value of reported EC50 for the item Uni-IgG1-1016-069 (antibody, V domains shown, human kappa; also called Hinge deleted IgG1 (Uni-IgG1) of 069; UniBody-IgG1) VH: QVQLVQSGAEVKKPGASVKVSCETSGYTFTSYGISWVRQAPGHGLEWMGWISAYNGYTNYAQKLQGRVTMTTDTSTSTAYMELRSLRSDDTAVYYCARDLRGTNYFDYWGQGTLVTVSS VL: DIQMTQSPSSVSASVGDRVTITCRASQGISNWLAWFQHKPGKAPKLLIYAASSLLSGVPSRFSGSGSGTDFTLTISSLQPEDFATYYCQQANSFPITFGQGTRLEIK
Solution: 0.0154

Problem: Please supply the value of reported EC50 for the item IgG1-1016-069 TH7Δ6-9 (antibody, V domains shown, human kappa; also called IgG1 TH7Δ6-9 mutant of 069) VH: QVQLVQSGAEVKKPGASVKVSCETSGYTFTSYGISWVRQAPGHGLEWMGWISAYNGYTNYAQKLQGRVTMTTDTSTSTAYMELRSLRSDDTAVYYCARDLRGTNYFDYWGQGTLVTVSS VL: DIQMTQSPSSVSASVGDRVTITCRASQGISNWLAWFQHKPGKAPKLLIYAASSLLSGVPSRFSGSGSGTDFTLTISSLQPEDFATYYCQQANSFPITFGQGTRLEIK
Solution: 0.0188
